Biological target: T1, human EpCAM protein (human, UniProt P16422 24-265)
T1 construct: biotinylated in the Octet assays; also called hu EpCAM; biotinylated human EpCAM protein
T1 sequence (looked up): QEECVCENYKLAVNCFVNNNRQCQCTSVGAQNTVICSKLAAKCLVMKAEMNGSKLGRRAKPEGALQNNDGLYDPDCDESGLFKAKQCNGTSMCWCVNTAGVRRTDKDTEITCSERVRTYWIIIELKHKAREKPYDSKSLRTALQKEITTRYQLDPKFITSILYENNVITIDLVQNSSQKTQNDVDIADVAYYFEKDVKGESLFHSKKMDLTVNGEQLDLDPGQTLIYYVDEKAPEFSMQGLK
Experiment: colorimetric ELISA
Kindly state ELISA absorbance for each of the entries shown.
Answer in absorbance, number only, no unit symbol.

Fill blank: measured ELISA absorbance of the binder Llama anti-EpCAM single domain antibody EPL127 (VHH, E. coli periplasmic extract) VHH: QVQLQESGGGLVQAGGSLRLSCAAPGFAFNDHAILWFRQAPGKEREGVSEICRDGTTYYTDSVKGRFTISSDNAKNTVYLQMNSVKTDDTAVYYCAVDRRRYYCSGNRAFSSDYYYWGQGTQVTVSS is ____. 0.4

Recorded ELISA absorbance of Llama anti-EpCAM single domain antibody EPL13 (VHH, E. coli periplasmic extract) VHH: QVQLQESGGGLVQPGGSLRLSCAASGFAFGNHWMYWYRQAPGRGRELVASISSGGSTNYVDSVKGRFTISRDNARNTVYLQMYSLKPEDTAVYYCGTSDNWGQGTQVTVSS , please. 2.9

Recorded ELISA absorbance of Llama anti-EpCAM single domain antibody EPL153 (VHH, E. coli periplasmic extract) VHH: QVQLQESGGGLVQPGGSLRLSCAASGFTFSDWAMSWVRQAPGKGLEWVSSIHYGDHTTHYADFVKGRFTISRDDAKNTLYLQMNSLKPEDTAVYYCEKGTTRGQGTQVTVSS , please. 3.1

Which ELISA absorbance value is on record for Llama anti-EpCAM single domain antibody EPL57 (VHH, E. coli periplasmic extract) VHH: QVQLQESGGGLVHTGGSLRLSCAFSGDTFLRYAMGWFRQAPGKEREFVAAITWNGGNTDYADSLKGRFTISRDNTKNTVYLQMNSLRPEDTAVYYCAADLTFGLASSHYQYDYWGQGTQVTVSS ? 1.7
